System: HL-60(TB) leukemia
Test: NCI tumour cell line growth inhibition, 48 h; in the data active = GI50 below about 0.43 µM; inactive = the rest
Please state which outcome applies, choosing from class 1 (active), class 0 (inactive)

Query :: Recorded test outcome, item `O=C(CCl)c1ccc([N+](=O)[O-])o1`
Result :: class 0

Query :: Recorded test outcome, item CCN1C(=O)N(CC)C2C1NN=c1s/c(=C3\C(=O)N(C(C)C)c4ccccc43)c(=O)n12 (stereo not drawn)
Result :: class 1

Query :: Recorded test outcome, item `COc1cc2cc(Oc3ccc(NC(=O)Nc4ccc(Cl)c(C(F)(F)F)c4)cc3)c(C)nc2cc1OCCN1CCCCC1`
Result :: class 0

Query :: Recorded test outcome, item CC1=C(C(=O)OCc2ccccc2)C(c2ccc3c(c2)OCO3)n2c(nc3ccccc32)N1 (stereo not drawn)
Result :: class 1

Query :: Recorded test outcome, item `C[C@]12CC[C@H]3[C@@H](CCC4=CC(=O)CC[C@@H]43)[C@@H]1CC[C@@H]2OC(=O)N(CCCl)N=O`
Result :: class 1

Query :: Recorded test outcome, item `CCN(CC)c1ccc(/C=C/c2cc(C)c3ccccc3n2)cc1`
Result :: class 0

Query :: Recorded test outcome, item `CC[C@H](Nc1nc(N)nc(C)c1C#N)c1nc2cccc(CN(C)c3ncc(C(=O)NO)cn3)c2c(=O)n1-c1ccccc1`
Result :: class 1

Query :: Recorded test outcome, item `CCOC(=O)Cc1c[nH]c(=S)[nH]c1=O`
Result :: class 0

Query :: Recorded test outcome, item `N#CC(C#N)=Cc1ccc(-c2ccc(-c3nc4ccccc4s3)cc2)o1`
Result :: class 0

Query :: Recorded test outcome, item `Fc1ccc2[nH]cc(Cc3c[nH]c4ccc(F)cc34)c2c1`
Result :: class 0

Query :: Recorded test outcome, item `O=c1cc(CNc2cc(F)cc(F)c2)c2ccc(I)cc2[nH]1`
Result :: class 1

Query :: Recorded test outcome, item COc1cc2cc(C(=O)N3CC(CCl)c4c3cc(NC(=O)C(C)(C)c3ccccc3[N+](=O)[O-])c3ccccc43)[nH]c2c(OC)c1OC (stereo not drawn)
Result :: class 0

Query :: Recorded test outcome, item `COc1cccc(C2=C(c3cn(C)c4ccccc34)C(=O)NC2=O)c1`
Result :: class 0

Query :: Recorded test outcome, item `COc1ccc(Cn2nc(-c3cc(OC)c(OC)c(OC)c3)c3c2CCc2cnoc2-3)cc1OC`
Result :: class 1

Query :: Recorded test outcome, item `CCOC(=O)c1c2c(n(CC(C)C)c1C)-c1nc[nH]c1C(=O)C2=O`
Result :: class 1

Query :: Recorded test outcome, item `O=C1C(Cl)=C(N/N=c2/[nH][nH]/c(=N/NC3=C(Cl)C(=O)c4ccccc4C3=O)c3ccccc23)C(=O)c2ccccc21`
Result :: class 0

Query :: Recorded test outcome, item `N#Cc1ncc(/N=C/c2ccc(N(CCCl)CCCl)cc2)s1`
Result :: class 0

Query :: Recorded test outcome, item `COc1cc2nc(Cl)nc(Nc3cccc(C(=O)/C=C/c4ccccc4)c3)c2cc1OC`
Result :: class 0

* * *

System: RXF-631 renal
Test: NCI tumour cell line growth inhibition, 48 h
recorded-endpoint: TGI

Query :: TGI for `CN(C)c1ccc2c(NCCCCCCNc3ccnc4cc(N(C)C)ccc34)ccnc2c1` ?
Result :: > 100 µM

Query :: TGI for CCOP(=O)(OCC)C1CCCCOC1=O (stereo unspecified) ?
Result :: > 100 µM

Query :: TGI for `Cc1c2ccncc2cc2c1sc1ccncc12` ?
Result :: > 40.9 µM

Query :: TGI for C/C(=N\N)C(CN(C)C)C(c1ccccc1)c1c(O)c2ccccc2oc1=O (stereo unspecified) ?
Result :: > 100 µM

Query :: TGI for O=C(CC1Sc2ccccc2NC1=O)Nc1cc(Cl)ccc1Cl (stereo unspecified) ?
Result :: > 100 µM

Query :: TGI for CC1=C2CCCC2C/C(=N/Nc2ccc([N+](=O)[O-])cc2[N+](=O)[O-])CC1 (stereo unspecified) ?
Result :: > 100 µM

* * *

Answer each item with its documented TGI.
System: M14 melanoma
Assay: NCI tumour cell line growth inhibition, 48 h

Query :: TGI for `CC(=O)[O][Pb]([O]C(C)=O)([c]1ccccc1)[c]1ccccc1` ?
Result :: > 100 µM

Query :: TGI for CN(C(=O)C12C3C4C1C1C2C3C41I)C(C)(C)C (stereo not given) ?
Result :: > 100 µM

Query :: TGI for `CCOC(=O)c1cc(Sc2ccc(N)c(C(=O)OCC)c2)ccc1N` ?
Result :: > 100 µM

Query :: TGI for NC(=O)C(Nc1c(Cl)cccc1Cl)c1cc2cc(Br)ccc2nc1Cl (stereo not given) ?
Result :: > 100 µM

Query :: TGI for `Cc1nn2c(=O)c([N+](=O)[O-])c(/C=C/c3ccccc3)nc2s1` ?
Result :: > 53.9 µM

Query :: TGI for `COc1cc2cc(Oc3ccc(NC(=O)Nc4ccc(Cl)c(C(F)(F)F)c4)cc3)c(C)nc2cc1OCCN1CCCCC1` ?
Result :: 3.78 µM

Query :: TGI for C=C(c1ccccc1)C1ON(C)CCc2cc(OC)c(OC)cc21 (stereo not given) ?
Result :: > 100 µM

Query :: TGI for `CN(C)c1ccc2nc3ccc(=[N+](C)C)cc-3oc2c1` ?
Result :: 3.77 µM

Query :: TGI for `COc1ccc(Cn2nc(-c3cc(OC)c(OC)c(OC)c3)c3c2CCc2cnoc2-3)cc1OC` ?
Result :: 47.4 µM

Query :: TGI for CC(C)c1ccccc1SC1CC(=O)CC(Sc2ccccc2C(C)C)C12O[C@H](c1ccccc1)[C@@H](c1ccccc1)O2 (stereo not given in full) ?
Result :: 40.8 µM

* * *

Tested on: HCC-2998 colon
Test: NCI tumour cell line growth inhibition, 48 h
recorded-endpoint: TGI

Query :: TGI for CC(=O)OC1c2ccccc2CC2(OC(C)=O)c3ccccc3C12 (configuration not stated) ?
Result :: > 100 µM

Query :: TGI for `O=C(CCl)c1ccc([N+](=O)[O-])o1` ?
Result :: 11.2 µM

Query :: TGI for CCCC(O)[C@@H](O)c1ccc2c(c1O)C(=O)c1c(OC)cccc1C2=O (some centres not stated) ?
Result :: 68.1 µM

Query :: TGI for O=C(CC1Sc2ccccc2NC1=O)Nc1cc(Cl)ccc1Cl (configuration not stated) ?
Result :: > 100 µM

Query :: TGI for CCOC(=O)CCC(NC(=O)Cc1ccc(Nc2nc3ccccc3nc2-c2ccccc2)cc1)C(=O)OCC (configuration not stated) ?
Result :: > 100 µM

Query :: TGI for `CCc1nnc(CC)n1NCCCC(=O)O` ?
Result :: > 100 µM

Query :: TGI for `c1csc(-c2cscc2-c2ccsc2)c1` ?
Result :: > 89.6 µM

Query :: TGI for `O=c1cc(CNc2cc(F)cc(F)c2)c2ccc(I)cc2[nH]1` ?
Result :: > 100 µM

Query :: TGI for `N#CSc1ncnc2nc[nH]c12` ?
Result :: > 100 µM

Query :: TGI for `Fc1cc(C2=C[C@H](c3ccc(Cl)cc3)NC(=S)N2)c(Cl)cc1Cl` ?
Result :: 79.8 µM

Query :: TGI for CC1=NC(=O)C(C)(c2ccccc2)N1CCc1ccccc1 (configuration not stated) ?
Result :: > 100 µM

Query :: TGI for `O=C(CCN1CCCC1)Nc1ccc2c(NCc3ccc(F)cc3)c3ccccc3nc2c1` ?
Result :: 2.03 µM

* * *

System: SK-MEL-28 melanoma
Assay: NCI tumour cell line growth inhibition, 48 h; in the data active = GI50 below about 0.43 µM; inactive = the rest
Please state which outcome applies, choosing from true for active, false for inactive

Query :: Recorded test outcome, item CC1(C)CCC2(C(=O)OC3OC(CO)C(O)C(O)C3O)CC[C@]3(C)C(=CCC4C5(C)CC[C@H](OC6OC(C(=O)O)C(O)C(O)C6O)C(C)(C)C5CCC43C)C2C1 (some centres undefined)
Result :: false

Query :: Recorded test outcome, item COc1cc2cc(C(=O)N3CC(CCl)c4c3cc(NC(=O)C(C)(C)c3ccccc3[N+](=O)[O-])c3ccccc43)[nH]c2c(OC)c1OC (centres undefined)
Result :: false

Query :: Recorded test outcome, item `Nc1ncnc2sc(=S)c3c(c12)CCC3`
Result :: false

Query :: Recorded test outcome, item `COc1cc2c(cc1OC)-c1ccc3cc4c(cc3c1N(CCN1CCCC1)C2)OCO4`
Result :: false

Query :: Recorded test outcome, item `c1ccc2[nH]c(-c3ccc(N4CCN(c5ccc(-c6nc7ccccc7[nH]6)cc5)CC4)cc3)nc2c1`
Result :: false

Query :: Recorded test outcome, item `CCc1ccc(NC(=O)Nc2c[nH]c3ccccc23)cc1`
Result :: false

Query :: Recorded test outcome, item `CCN=C1C=CC(=C(c2ccc(N(C)C)cc2)c2ccc(N(C)C)cc2)c2ccccc21`
Result :: true

Query :: Recorded test outcome, item `CCn1c(-c2nonc2N)nc2cncc(C(=O)N3CCNCC3)c21`
Result :: false

Query :: Recorded test outcome, item CC1=C(C(=O)OCc2ccccc2)C(c2ccc3c(c2)OCO3)n2c(nc3ccccc32)N1 (centres undefined)
Result :: false

From: PubChem BioAssay (NCI)
